molecular target: h-GABA-A α5β3γ2 (Homo sapiens (Human), UniProt P18507+P31644); test: Two-electrode voltage clamp electrophysiology in Xenopus oocytes expressing GABAA receptors, modulation of GABA EC20 current; assay type: cell-based; details: Xenopus oocytes, GABA EC20, test compound at approx. 30 fold its Ki
Could you please report measured Fold increase h-GABA-A α5β3γ2 oocyte for the items listed next?

For h-GABA-A α5β3γ2 (Homo sapiens (Human), UniProt P18507+P31644), provide Fold increase h-GABA-A α5β3γ2 oocyte of `Cc1ccc(-c2noc(C)c2COc2ccc(C(=O)N3CC(F)C3)nn2)cn1` please.
1.62

Another molecule to look at: `Cc1ccc(-c2noc(C)c2COc2ccc(C(=O)N[C@@H]3CCCC[C@H]3O)nn2)cn1`
1.59

Another molecule to look at: `Cc1ccc(-c2noc(C)c2COc2ccc(C(=O)N3CC4(C3)CS(=O)(=O)C4)nn2)cn1`
1.43

Another molecule to look at: `CCNC(=O)c1ccc(OCc2c(-c3ccc(C)nc3)noc2C)nn1`
1.73

Another molecule to look at: `Cc1onc(-c2ccc(C3CC3)nc2)c1COc1ccc(C(=O)NC2CCS(=O)(=O)CC2)cn1`
2.28

Another molecule to look at: Cc1ccc(-c2noc(C)c2COc2ccc(C(=O)N[C@@H]3CC[C@@H](O)C3)nn2)cn1 (racemic)
1.85

Another molecule to look at: Cc1ccc(-c2noc(C)c2COc2cnc(C(=O)NC3CCS(=O)(=O)C3)cn2)cn1 (stereo not shown)
1.92

Another molecule to look at: `Cc1ccc(-c2noc(C)c2COc2cnc(C(=O)N[C@H]3CC[C@@](C)(O)CC3)cn2)cn1`
1.43

Another molecule to look at: `Cc1ccc(-c2noc(C)c2COc2cnc(C(=O)NCCO)cn2)cn1`
1.37

Another molecule to look at: `Cc1ccc(-c2noc(C)c2COc2cnc(C(=O)N[C@H]3CC[C@](C)(O)CC3)cn2)cn1`
2.01

Another molecule to look at: `Cc1ccc(-c2noc(C)c2COc2ccc(C(=O)N[C@@H]3CCCC[C@H]3O)cn2)cn1`
1.64

Another molecule to look at: `Cc1ccc(-c2noc(C)c2COc2ccc(C(=O)NC(C)(C)C)nn2)cn1`
2.04

Another molecule to look at: `Cc1ccc(-c2noc(C)c2COc2ccc(C(=O)NC3CC(F)(F)C3)nn2)cn1`
1.81

Another molecule to look at: `Cc1ccc(-c2noc(C)c2COc2ccc(C(=O)NC3(C)CCSCC3)nn2)cn1`
1.65

Another molecule to look at: `Cc1ccc(-c2noc(C)c2COc2ccc(C(=O)N[C@H]3CC[C@H](O)CC3)nn2)cn1`
1.84

Another molecule to look at: Cc1ccc(-c2noc(C)c2COc2ccc(C(=O)NC3CCCOCC3)nn2)cn1 (racemic)
1.88

---

Could you please report measured Ki for the items listed next?
biological target: h-GABA-A α5β3γ2 (Homo sapiens (Human), UniProt P18507+P31644); experiment: [3H]flumazenil competition binding assay, membranes of HEK293 cells expressing human GABAA receptors; settings: displacement of [3H]flumazenil 0.5 nM, HEK293 cells expressing human receptors, mean of two determinations; read-out: Ki h-GABA-A α5β3γ2
Please reply with the bare figure in nM and do not write the unit itself.

// query Ki value for entry `CCC[C@H](CO)NC(=O)c1ccc(OCc2c(-c3ccc(C)nc3)noc2C)nc1`
36.6

Another compound to look at: `Cc1ccc(-c2noc(C)c2COc2ccc(C(=O)N[C@@H]3CCCC[C@H]3O)cn2)cn1`
37.7

Another compound to look at: `Cc1ccc(-c2noc(C)c2COc2ccc(C(=O)NC3CCC(F)(F)CC3)nn2)cn1`
16.4

Another compound to look at: Cc1ccc(-c2noc(C)c2COc2ccc(C(=O)N[C@@H]3CC[C@@](O)(C(F)(F)F)C3)nn2)cn1 (single isomer, unassigned)
5

Another compound to look at: `Cc1ccc(-c2noc(C)c2COc2ccc(C(=O)N[C@H]3C[C@H](OC(F)F)C3)nn2)cn1`
8.8

Another compound to look at: `CO[C@H]1C[C@H](NC(=O)c2ccc(OCc3c(-c4ccc(C)nc4)noc3C)nn2)C1`
8.6

Another compound to look at: `Cc1ccc(-c2noc(C)c2COc2cc3c(cn2)C(=O)N(CCO)C3)cn1`
16.3

---

target: h-GABA-A α5β3γ2 (Homo sapiens (Human), UniProt P18507+P31644); assay: Two-electrode voltage clamp electrophysiology in Xenopus oocytes expressing GABAA receptors, modulation of GABA EC20 current; type: cell-based; conditions: Xenopus oocytes, GABA EC20, test compound at approx. 30 fold its Ki
Property name: Fold increase h-GABA-A α5β3γ2 oocyte
Give your answer as a number; write no unit.

For h-GABA-A α5β3γ2 (Homo sapiens (Human), UniProt P18507+P31644), provide Fold increase h-GABA-A α5β3γ2 oocyte of Cc1ccc(-c2noc(C)c2COc2ccc(C(=O)NC3CC4(C3)CC(F)(F)C4)nn2)cn1 [Example 167] please.
1.64

Another molecule to look at: Cc1ccc(-c2noc(C)c2COc2ccc(C(=O)NC(C)C)nn2)cn1 [Example 38]
1.84

Another molecule to look at: Cc1ccc(-c2noc(C)c2COc2ccc(C(=O)NC3CCC(F)(F)CC3)nn2)cn1 [Example 43]
1.82

Another molecule to look at: Cc1ccc(-c2noc(C)c2COc2ccc(C(=O)N[C@H]3C[C@H](OCC(F)F)C3)nn2)cn1 [Example 170]
1.6

---

molecular target: h-GABA-A α5β3γ2 (Homo sapiens (Human), UniProt P18507+P31644); assay: [3H]flumazenil competition binding assay, membranes of HEK293 cells expressing human GABAA receptors; conditions: displacement of [3H]flumazenil 0.5 nM, HEK293 cells expressing human receptors, mean of two determinations; read-out: Ki h-GABA-A α5β3γ2
Property name: pKi
Field pKi (float): negative decimal logarithm of the concentration in molar.

// query pKi value for entry CNC(=O)c1ccc(OCc2c(-c3ccc(C)nc3)noc2C)nn1 [Example 46]
8.46

Another compound to look at: Cc1ccc(-c2noc(C)c2COc2ccc(C(=O)NC3CCS(=O)(=O)C3)cn2)cn1 (centres unmarked) [Example 16]
7.72

Another compound to look at: Cc1ccc(-c2noc(C)c2COc2ccc(C(=O)N3CC(C#N)C3)nn2)cn1 [Example 84]
7.72

Another compound to look at: Cc1ccc(-c2noc(C)c2COc2cc3c(cn2)C(=O)N(C2CCS(=O)(=O)CC2)C3)cn1 [Example 91]
8.26

Another compound to look at: Cc1onc(-c2ccc(C3CC3)nc2)c1COc1ccc(C(=O)NC2CCS(=O)(=O)CC2)cn1 [Example 130]
7.52

Another compound to look at: Cc1ccc(-c2noc(C)c2COc2ccc(C(=O)NC3CC4(COC4)C3)nn2)cn1 [Example 100]
8.07

Another compound to look at: Cc1ccc(-c2noc(C)c2COc2cc(C)c(C(=O)NC3CCOCC3)nn2)cn1 [Example 62]
7.68

Another compound to look at: CCC[C@@H](CO)NC(=O)c1ccc(OCc2c(-c3ccc(C)nc3)noc2C2CC2)nc1 [Example 5]
7.23

---

molecular target: h-GABA-A α5β3γ2 (Homo sapiens (Human), UniProt P18507+P31644); experiment: [3H]flumazenil competition binding assay, membranes of HEK293 cells expressing human GABAA receptors; conditions: displacement of [3H]flumazenil 0.5 nM, HEK293 cells expressing human receptors, mean of two determinations; read-out: Ki h-GABA-A α5β3γ2
Property name: Ki
Please give the number followed by its unit.

// query Ki value for entry `Cc1ccc(-c2noc(C)c2COc2ccc(C(=O)N[C@H]3CCCC[C@@H]3O)cn2)cn1`
0.0304 µM

Another compound to look at: `Cc1ccc(-c2noc(C)c2COc2ccc(C(N)=O)nn2)cn1`
0.0102 µM

Another compound to look at: `Cc1ccc(-c2noc(C)c2COc2ccc(C(=O)N[C@@H]3CCCC[C@@H]3O)nn2)cn1`
0.0123 µM

Another compound to look at: `COC1CN(C(=O)c2ccc(OCc3c(-c4ccc(C)nc4)noc3C)nn2)C1`
0.0086 µM

Another compound to look at: `Cc1ccc(-c2noc(C)c2COc2cnc(C(=O)NC3CCC(F)(F)CC3)cn2)cn1`
0.017 µM

Another compound to look at: `CCOC(=O)C1(NC(=O)c2ccc(OCc3c(-c4ccc(C)nc4)noc3C)nn2)CC1`
0.0562 µM

Another compound to look at: `Cc1ccc(-c2noc(C)c2COc2ccc(C(=O)NC(C)(C)CO)nn2)cn1`
0.0085 µM

Another compound to look at: `Cc1ccc(-c2noc(C)c2COc2cc3c(cn2)C(=O)N(C2CC4(COC4)C2)C3)cn1`
0.0156 µM

Another compound to look at: `Cc1ccc(-c2noc(C)c2COc2ccc(C(=O)N[C@H]3C[C@H](OC4CC4)C3)nn2)cn1`
0.0101 µM

Another compound to look at: `CC[C@@H](CC#N)NC(=O)c1ccc(OCc2c(-c3ccc(C)nc3)noc2C)nn1`
0.0409 µM

Another compound to look at: `CCc1onc(-c2ccc(C)nc2)c1COc1ccc(C(=O)NC2CCOCC2)nn1`
0.0403 µM

Another compound to look at: `Cc1ccc(-c2noc(C)c2COc2cnc(C(=O)N[C@H]3CC[C@@](C)(O)CC3)cn2)cn1`
0.0663 µM

Another compound to look at: `CCc1onc(-c2ccc(C)nc2)c1COc1ccc(C(=O)NC2CC2)nn1`
0.0221 µM

Another compound to look at: `Cc1ccc(-c2noc(C)c2COc2cnc(C(=O)N[C@H]3CC[C@@H](C(F)(F)F)CC3)cn2)cn1`
0.0207 µM

Another compound to look at: `CC1(NC(=O)c2ccc(OCc3c(-c4ccc(Cl)nc4)noc3C3CC3)nn2)COC1`
0.0397 µM

Another compound to look at: `Cc1ccc(-c2noc(C)c2COc2ccc(C(=O)NC3COC3)nn2)cn1`
0.0044 µM

Another compound to look at: `CCC[C@@H](CO)N1Cc2cc(OCc3c(-c4ccc(C)nc4)noc3C)ncc2C1=O`
0.0144 µM
